Molecular target: human CYP11B1 (Homo sapiens (Human), UniProt P15538)
Sequence (P15538 25-503): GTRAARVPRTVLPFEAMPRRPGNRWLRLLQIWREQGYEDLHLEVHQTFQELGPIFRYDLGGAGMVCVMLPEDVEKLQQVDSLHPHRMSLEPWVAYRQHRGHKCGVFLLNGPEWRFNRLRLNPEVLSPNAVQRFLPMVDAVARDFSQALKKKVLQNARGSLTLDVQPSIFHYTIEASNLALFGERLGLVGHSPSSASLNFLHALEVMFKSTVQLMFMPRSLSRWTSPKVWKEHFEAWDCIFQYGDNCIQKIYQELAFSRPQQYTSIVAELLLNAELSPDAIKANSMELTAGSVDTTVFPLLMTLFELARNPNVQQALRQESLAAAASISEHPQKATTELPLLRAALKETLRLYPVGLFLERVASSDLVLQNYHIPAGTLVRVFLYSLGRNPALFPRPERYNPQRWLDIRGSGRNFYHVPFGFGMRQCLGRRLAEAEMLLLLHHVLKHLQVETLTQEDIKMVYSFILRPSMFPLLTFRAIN
Assay: Cellular assay for CYP11B1 inhibition (V79MZh11B1 hamster fibroblasts, substrate 11-deoxycorticosterone)
Details: ratio IC50 (CYP11B2)/IC50 (CYP11B1)
Observation type: sf: selectivity factor: IC50 (CYP11B2)/IC50 (CYP11B1)
Please state the value as a number alone, without comment.

Kindly note: human CYP11B1 (Homo sapiens (Human), UniProt P15538), Clc1ncc(Cn2ccnc2)cc1Br , sf: selectivity factor: IC50 (CYP11B2)/IC50 (CYP11B1) value reported: 3.4

Kindly note: human CYP11B1 (Homo sapiens (Human), UniProt P15538), c1csc(-c2ncccc2Cn2ccnc2)c1 , sf: selectivity factor: IC50 (CYP11B2)/IC50 (CYP11B1) value reported: 16

Kindly note: human CYP11B1 (Homo sapiens (Human), UniProt P15538), Nc1ccccc1-c1ccc(Cn2ccnc2)cn1 , sf: selectivity factor: IC50 (CYP11B2)/IC50 (CYP11B1) value reported: 21

Kindly note: human CYP11B1 (Homo sapiens (Human), UniProt P15538), c1cn(Cc2ccc(-c3ccoc3)nc2)cn1 , sf: selectivity factor: IC50 (CYP11B2)/IC50 (CYP11B1) value reported: 37

Kindly note: human CYP11B1 (Homo sapiens (Human), UniProt P15538), Fc1ccc(-c2ccc(Cn3ccnc3)cn2)cc1 , sf: selectivity factor: IC50 (CYP11B2)/IC50 (CYP11B1) value reported: 10

Kindly note: human CYP11B1 (Homo sapiens (Human), UniProt P15538), Brc1ncccc1Cn1ccnc1 , sf: selectivity factor: IC50 (CYP11B2)/IC50 (CYP11B1) value reported: 15

Kindly note: human CYP11B1 (Homo sapiens (Human), UniProt P15538), COc1ccccc1-c1ccc(Cn2ccnc2)cn1 , sf: selectivity factor: IC50 (CYP11B2)/IC50 (CYP11B1) value reported: 26

Kindly note: human CYP11B1 (Homo sapiens (Human), UniProt P15538), Nc1ccc(-c2ccc(Cn3ccnc3)cn2)cc1 , sf: selectivity factor: IC50 (CYP11B2)/IC50 (CYP11B1) value reported: 5

Kindly note: human CYP11B1 (Homo sapiens (Human), UniProt P15538), c1ccc(-c2cc(Cn3ccnc3)cnc2-c2ccccc2)cc1 [Compound 25] , sf: selectivity factor: IC50 (CYP11B2)/IC50 (CYP11B1) value reported: 2.4

Kindly note: human CYP11B1 (Homo sapiens (Human), UniProt P15538), c1coc(-c2ccc(Cn3ccnc3)cn2)c1 , sf: selectivity factor: IC50 (CYP11B2)/IC50 (CYP11B1) value reported: 31
